# target: SARS-CoV-2 Spike protein (SARS-CoV-2, UniProt P0DTC2 14-1208)
# testDescription: HT-SPR (Carterra LSA), mAb coupled to chip, Spike in solution, 1:1 Langmuir fit
measuredQuantity: kon (M⁻¹ s⁻¹)

>  <binder>
mAb 1538 (antibody, V domains shown, human IgG1) VH: EVQLLESGGGLVQPGGSLRLSCAASGFTFSSYAMSWVRQAPGKGLEWVSGISDSGGSTYYADYVKGRFTISRDNSKDTLYLQMNSLRAEDTAVYYCAKDRGNEYALTHYYYYAMDVWGQGTTVTVSS VL: DIQMTQSPSSLSASVGDRVTITCRASQSISSYLNWYQQKPGKAPKLLIYAAYSLQSGVPSRFSGGGSGTDFTLTISSLQPEDFATYFCQQSYSTPITFGQGTRLEIKR

>  <measuredQuantity>
kon

>  <valueObserved>
133000

$$$$
